Origin of measurements: paper PMC6696415

assay: Physical stability study of spray-dried amorphous APIs stored at 75% RH, 25 °C (solid state by Raman, MDSC, PXRD); format: physicochemical; conditions: spray-dried amorphous API, 75% RH at 25 °C
observationType: Crystallization Initiation Propensity

Nc1ccc(S(=O)(=O)Nc2nccs2)cc1
High
CC1Cc2ccccc2N1NC(=O)c1ccc(Cl)c(S(N)(=O)=O)c1 (stereo not shown) [Indapamide, indapamide]
Low
Cc1ccccc1N1C(=O)c2cc(S(N)(=O)=O)c(Cl)cc2NC1C (stereo not shown)
Low
NS(=O)(=O)c1cc2c(cc1Cl)NCNS2(=O)=O [Hydrochlorothiazide, hydrochlorothiazide]
High

For each of the compounds below, state Crystallization Initiation Propensity.
1. CC(=O)N1CCN(c2ccc(OCC3COC(Cn4ccnc4)(c4ccc(Cl)cc4Cl)O3)cc2)CC1 (stereo not shown)
2. C[C@]12CCC(=O)C=C1CC[C@@H]1[C@@H]2[C@@H](O)C[C@@]2(C)[C@H]1CC[C@]2(O)C(=O)CO [Hydrocortisone, hydrocortisone]

Reply:
1: High; 2: High

Ask: Please report the recorded Crystallization Initiation Propensity for COc1ccc(Cl)cc1C(=O)NCCc1ccc(S(=O)(=O)NC(=O)NC2CCCCC2)cc1 [Glibenclamide, glibenclamide] .
Reply: High

###

Test: In vitro supersaturation under non-sink conditions (µDISS Profiler, tenfold supersaturation ratio, spray-dried solids)
Format: physicochemical
Conditions: aged and/or crystallized spray-dried (SD Tn, stored at 75% RH); tenfold supersaturation ratio, phosphate buffer pH 6.5, 37 °C, 60 min
Description: The protocol is described in Edueng et al.. In short, the experiment was initiated by constructing a standard curve (R^2 ≥ 0.97) covering the possible concentrations attained from the supersaturation. […] The temperature and stirring rate were maintained at 37 °C and 100 rpm, respectively, and the supersaturation behavior was monitored for 60 min. […] These three parameters were determined using GraphPad Prism version 8.1.0 for Windows (GraphPad Software, San Diego, CA, USA). […]
# note: boundary value 3 maps to Not satisfied; RCmax,app (Cmax,app ratio spray-dried/crystalline) below it maps to Satisfied

Ask: For this compound, is RCmax,app (Cmax,app ratio spray-dried/crystalline) lower than 3? COc1ccc(Cl)cc1C(=O)NCCc1ccc(S(=O)(=O)NC(=O)NC2CCCCC2)cc1 [Glibenclamide, glibenclamide]
Reply: Not satisfied

Ask: For this compound, is RCmax,app (Cmax,app ratio spray-dried/crystalline) lower than 3? CC1Cc2ccccc2N1NC(=O)c1ccc(Cl)c(S(N)(=O)=O)c1 (centres unmarked) [Indapamide, indapamide]
Reply: Satisfied

Ask: For this compound, is RCmax,app (Cmax,app ratio spray-dried/crystalline) lower than 3? "Nc1ccc(S(=O)(=O)Nc2nccs2)cc1"
Reply: Satisfied

Ask: For this compound, is RCmax,app (Cmax,app ratio spray-dried/crystalline) lower than 3? Cc1ccccc1N1C(=O)c2cc(S(N)(=O)=O)c(Cl)cc2NC1C (centres unmarked)
Reply: Satisfied

Ask: For this compound, is RCmax,app (Cmax,app ratio spray-dried/crystalline) lower than 3? CC(=O)N1CCN(c2ccc(OCC3COC(Cn4ccnc4)(c4ccc(Cl)cc4Cl)O3)cc2)CC1 (centres unmarked)
Reply: Satisfied

###

Hi there, I'd appreciate the recorded Time to Start Crystallization for every entry that follows.
assay: Physical stability study of spray-dried amorphous APIs stored at 75% RH, 25 °C (solid state by Raman, MDSC, PXRD); assay type: physicochemical; conditions: spray-dried amorphous API, 75% RH at 25 °C, up to 168 days
Write your answer as a measured quantity: the number, then the unit.

Known results for molecules:
COc1ccc(Cl)cc1C(=O)NCCc1ccc(S(=O)(=O)NC(=O)NC2CCCCC2)cc1 [Glibenclamide, glibenclamide]
1 days
CC(=O)N1CCN(c2ccc(OCC3COC(Cn4ccnc4)(c4ccc(Cl)cc4Cl)O3)cc2)CC1 (stereo not drawn)
1 days

Please examine the following record next.
Ask: Please report the recorded Time to Start Crystallization for C[C@]12CCC(=O)C=C1CC[C@@H]1[C@@H]2[C@@H](O)C[C@@]2(C)[C@H]1CC[C@]2(O)C(=O)CO [Hydrocortisone, hydrocortisone] .
Reply: 1 days
